tested on: giant foxtail; assay: Test B pre/postemergence giant foxtail; assay type: in vivo, Setaria faberii; settings: Preemergence, Rate 500 g/ha; scale 0 to 10, 0 is no effect, 10 is complete control
readout_kind: Giant foxtail plant response rating

{"compound": "CC(C)N(C(=O)n1oc(=O)n(C(C)CCl)c1=O)c1ccc(Cl)cc1 (stereo not drawn)", "readout_kind": "Giant foxtail plant response rating", "experimental_value": 10}
{"compound": "CC(C)N(C(=O)n1oc(=O)n(CCC#N)c1=O)c1ccc(F)cc1F", "readout_kind": "Giant foxtail plant response rating", "experimental_value": 10}

# input for lookup
[Q] Name the reported Giant foxtail plant response rating value associated with the compound COC(C)n1c(=O)on(C(=O)N(c2ccc(F)cc2)C(C)C)c1=O (stereo not drawn)
[A] 0

###

test system: velvetleaf; assay: Test B pre/postemergence velvetleaf; format: in vivo, Abutilon theophrasti; conditions: Rate 125 g/ha; Preemergence; scale of 0 to 10 where 0 is no effect and 10 is complete control
readout_kind: Velvetleaf plant response rating
Just the number.

Recorded results for 2 compounds are shown here.
{"compound": "CC(C)N(C(=O)n1oc(=O)n(C2CC2)c1=O)c1ccccc1 [Compound 243]", "Velvetleaf plant response rating": 6}
{"compound": "COCCOCn1c(=O)on(C(=O)N(c2ccc(F)cc2)C(C)C)c1=O [Compound 258]", "Velvetleaf plant response rating": 5}

[Q] Name the reported Velvetleaf plant response rating value associated with the compound CCOC(=O)C(C)N(C(=O)n1oc(=O)n(-c2c(C)cccc2C)c1=O)c1ccc(F)cc1 (centres unmarked) [Compound 244]
[A] 0

[Q] Name the reported Velvetleaf plant response rating value associated with the compound Cc1ccccc1-n1c(=O)on(C(=O)N(c2cccc(F)c2)C(C)C)c1=O [Compound 269]
[A] 0

[Q] Name the reported Velvetleaf plant response rating value associated with the compound CC(C)N(C(=O)n1oc(=O)n(CCC2CCCCC2)c1=O)c1ccc(F)cc1 [Compound 257]
[A] 0

###

tested on: smallflower flatsedge; assay: Test B flood test smallflower flatsedge; format: in vivo, Cyperus difformis; conditions: Rate 125 g/ha; Pre-emergence; flood test species; scale 0 to 10 where 0 is no effect and 10 is complete control
readout_kind: S. Flatsedge plant response rating

Recorded results for 3 compounds are shown here.
{"compound": "CC(C)N(C(=O)n1oc(=O)n(C2CCCC2)c1=O)c1ccc(Cl)cc1", "system_tested": "smallflower flatsedge", "S. Flatsedge plant response rating": 0}
{"compound": "CCC(C)N(C(=O)n1oc(=O)n(-c2ccccc2C)c1=O)c1ccc(F)cc1 (stereo not shown)", "system_tested": "smallflower flatsedge", "S. Flatsedge plant response rating": 0}
{"compound": "CCC(CC)n1c(=O)on(C(=O)N(c2ccc(F)cc2F)C(C)C)c1=O", "system_tested": "smallflower flatsedge", "S. Flatsedge plant response rating": 2}

# input for lookup
[Q] Name the reported S. Flatsedge plant response rating value associated with the compound CC(C)N(C(=O)n1oc(=O)n(-c2ccc3ccccc3c2)c1=O)c1ccccc1
[A] 0

###

Recorded B. signalgrass plant response rating for the following molecules
tested on: surinam grass; test: Test B pre/postemergence surinam grass; assay type: in vivo, Brachiaria decumbens; details: Preemergence, Rate 250 g/ha; scale of 0 to 10 where 0 is no effect and 10 is complete control
Just the number.

Recorded results for 5 molecules are shown here.
{"molecule": "Cc1ccccc1-n1c(=O)on(C(=O)N(c2ccc3ccccc3c2)C(C)C)c1=O", "system_tested": "surinam grass", "experimental_value": 0}
{"molecule": "CC(C)N(C(=O)n1oc(=O)n(C2CCCCCC2)c1=O)c1ccccc1", "system_tested": "surinam grass", "experimental_value": 0}
{"molecule": "CC(C)N(C(=O)n1oc(=O)n(CCC2CCCCC2)c1=O)c1ccc(F)cc1", "system_tested": "surinam grass", "experimental_value": 0}
{"molecule": "CC(C)N(C(=O)n1oc(=O)n(C(C)Cl)c1=O)c1ccc(F)cc1 (stereo not drawn)", "system_tested": "surinam grass", "experimental_value": 0}
{"molecule": "CC(C)N(C(=O)n1oc(=O)n(C2CC2)c1=O)c1ccccc1", "system_tested": "surinam grass", "experimental_value": 7}

[Q] Name the reported B. signalgrass plant response rating value associated with the molecule CC(C)N(C(=O)n1oc(=O)n(C2CCC2)c1=O)c1ccc(F)cc1
[A] 2

[Q] Name the reported B. signalgrass plant response rating value associated with the molecule CC(C)N(C(=O)n1oc(=O)n(CCl)c1=O)c1ccc(Cl)cc1
[A] 0

[Q] Name the reported B. signalgrass plant response rating value associated with the molecule CSCCn1c(=O)on(C(=O)N(c2ccccc2)C(C)C)c1=O
[A] 2

[Q] Name the reported B. signalgrass plant response rating value associated with the molecule COCCOCn1c(=O)on(C(=O)N(c2ccc(F)cc2)C(C)C)c1=O
[A] 7
